- procedure_text: Plasma pharmacokinetic profile in mice (I.V. and P.O.)
- condition_set: mouse, plasma, oral, 20 mg/kg
metric: bioavailability (%)
Give the value, in units of %, as a plain number.

## Input Which bioavailability is listed for COc1nc2cc(F)c(F)cc2nc1NC(=O)NC1CCN(Cc2cc3ccccc3[nH]2)CC1 ?
## Output 20.3

====

- target_or_system: hERG channel (Homo sapiens, UniProt Q12809)
- Construct: host or cells: HEK293
- Sequence (Q12809 whole entry): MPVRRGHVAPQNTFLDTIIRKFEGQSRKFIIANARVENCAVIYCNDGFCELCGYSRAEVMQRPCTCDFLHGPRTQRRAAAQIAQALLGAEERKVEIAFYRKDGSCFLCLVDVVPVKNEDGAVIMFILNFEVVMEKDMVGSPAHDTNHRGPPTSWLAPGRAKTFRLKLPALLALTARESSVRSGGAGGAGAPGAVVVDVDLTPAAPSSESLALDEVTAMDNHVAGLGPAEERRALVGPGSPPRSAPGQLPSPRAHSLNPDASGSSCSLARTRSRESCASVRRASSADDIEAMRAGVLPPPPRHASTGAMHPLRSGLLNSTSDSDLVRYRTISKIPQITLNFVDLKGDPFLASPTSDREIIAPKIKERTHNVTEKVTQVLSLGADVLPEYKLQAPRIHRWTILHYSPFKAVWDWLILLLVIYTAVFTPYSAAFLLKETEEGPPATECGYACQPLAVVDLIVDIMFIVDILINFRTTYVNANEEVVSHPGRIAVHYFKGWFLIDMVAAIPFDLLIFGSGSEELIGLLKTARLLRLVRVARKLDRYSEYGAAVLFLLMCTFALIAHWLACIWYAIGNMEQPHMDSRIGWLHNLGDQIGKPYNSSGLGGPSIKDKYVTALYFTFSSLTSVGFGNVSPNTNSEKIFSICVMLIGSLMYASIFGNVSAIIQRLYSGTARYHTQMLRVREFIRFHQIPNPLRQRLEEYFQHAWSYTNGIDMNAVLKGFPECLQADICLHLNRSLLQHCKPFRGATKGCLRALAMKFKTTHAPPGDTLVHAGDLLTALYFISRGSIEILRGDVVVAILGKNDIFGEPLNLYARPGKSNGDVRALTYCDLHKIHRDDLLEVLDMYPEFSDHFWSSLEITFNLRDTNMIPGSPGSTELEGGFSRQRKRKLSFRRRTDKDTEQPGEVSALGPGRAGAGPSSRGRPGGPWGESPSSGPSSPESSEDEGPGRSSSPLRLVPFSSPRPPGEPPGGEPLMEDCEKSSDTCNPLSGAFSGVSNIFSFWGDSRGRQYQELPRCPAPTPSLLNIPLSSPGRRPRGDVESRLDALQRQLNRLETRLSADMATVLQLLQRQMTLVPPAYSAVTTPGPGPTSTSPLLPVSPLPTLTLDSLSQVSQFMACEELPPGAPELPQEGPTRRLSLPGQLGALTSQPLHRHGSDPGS
- procedure_text: Patch clamp assay on HEK293-hERG cells
- Type: cell-based
Entries and their pIC50
Please treat pIC50 as minus the base-10 logarithm of the molar concentration.

Use the examples below as a reference point.
1) COc1nc2cc(F)c(F)cc2nc1NC(=O)NC1CCN(Cc2ccc3[nH]ncc3c2)CC1 | 6.74
2) COc1nc2cc(F)c(F)cc2nc1NC(=O)NC1CCN(Cc2cc3ccccc3[nH]2)CC1 | 4.89
3) COc1nc2cc(F)c(F)cc2nc1NC(=O)NC1CCN(Cc2ccc3[nH]ccc3c2)CC1 | 6.04

Continue with the next compound.
## Input Request - read-out pIC50 | tested on hERG channel (Homo sapiens, UniProt Q12809) | compound CCN(CC)CCN(C)c1cnc2cc(NC(=O)c3ccc(-c4ccc(Cl)cc4)cc3)ccc2n1
## Output 6.38
